Tested on: HepG2
assay procedure: Cytotoxicity against human HepG2 cells assessed as growth inhibition after 48 hrs by Alamar blue assay
Assay type: cell-based
condition set: hepg2, 48 h
// boundary case: CC50 equal to 4 µM maps to 0; strictly smaller maps to 1

- structure smiles: "Cl.NCCN(C(=O)c1ccc(Cl)cc1Cl)c1ccc(OCc2ccc(Cl)cc2)cc1"
  target system: "HepG2"
  qualitative label: 1
- structure smiles: "NCCN(C(=O)c1cccnc1C(F)(F)F)c1ccc(OCc2ccc(Cl)cc2)cc1"
  target system: "HepG2"
  qualitative label: 0

Query block: Determine whether this compound shows CC50 lower than 4 µM (ties excluded): Cc1cc(C)cc(COc2ccc(N(CCN)C(=O)c3cccnc3C(F)(F)F)cc2)c1
Result block: 0

Query block: Find out if reported CC50 for CC(C)(C)c1ccc(COc2ccc(N(CCN)C(=O)c3ccc(Cl)cc3Cl)cc2)cc1 is less than 4 µM
Result block: 1

Query block: Does the reported CC50 of CCc1ccc(COc2ccc(N(CCN)C(=O)c3ccc(Cl)cc3Cl)cc2)cc1 stay below 4 µM?
Result block: 0

Query block: CC50 strictly < 4 µM for this compound? NCCN(C(=O)c1cccnc1Cl)c1ccc(OCc2ccc(Cl)cc2)cc1
Result block: 0

Query block: Is 4 µM strictly greater than the compound's reported CC50? compound: NCCN(C(=O)c1ccccc1Cl)c1ccc(Cl)cc1
Result block: 0

Query block: Lab note: confirm whether the reported CC50 for this compound is below 4 µM, equality not counting. compound: NCCN(C(=O)c1ccc(Cl)cc1Cl)c1ccc(Br)cc1
Result block: 0

====

System: Liver
assay procedure: Half life in mouse liver microsomes at 1.5 uM by LC-MS analysis
Type: ADME, microsome
Recorded t1/2 by entry

Observe how each entry below is paired with its result.
- structure smiles: "Cl.NCCN(C(=O)c1ccc(Cl)cc1Cl)c1ccc(F)cc1"
  t1/2: "> 60 min"
- structure smiles: "Cl.NCCN(C(=O)c1ccc(Cl)cc1Cl)c1ccc(OCc2ccc(Cl)cc2)cc1"
  t1/2: "35 min"
- structure smiles: "Cl.NCCN(C(=O)c1ccc(F)cc1C(F)(F)F)c1ccc(OCc2ccc(Cl)cc2)cc1"
  t1/2: "> 60 min"

Query block: I have this molecule here, CC(C)c1ccc(COc2ccc(N(CCN)C(=O)c3cccnc3Cl)cc2)cc1.Cl , and I need its recorded t1/2.
Result block: > 60 min

====

assay procedure: AUC (0 to 8 hrs) in mouse at 50 mg/kg, po by LC-MS analysis
Format: ADME, organism-based
Design: dose 50 mg/kg, time < 8 hr, route oral
condition set: in vivo
test readout: AUC(0-t) at 8 h (µM·h)
Express the result in µM·h but write the number alone.

Would you please look over these solved cases?
- structure smiles: "Cc1cc(C)cc(COc2ccc(N(CCN)C(=O)c3ccccc3C(F)(F)F)cc2)c1.Cl"
  test value: 6.51
- structure smiles: "Cc1cc(C)cc(COc2ccc(N(CCN)C(=O)c3ccc(Cl)cc3Cl)cc2)c1.Cl"
  test value: 33.9
- structure smiles: "Cl.NCCN(C(=O)c1ccccc1C(F)(F)F)c1ccc(OCc2ccc(Cl)cc2)cc1"
  test value: 10.3
- structure smiles: "Cl.NCCN(C(=O)c1ccc(Cl)cc1Cl)c1ccc(OCc2ccc(Cl)cc2)cc1"
  test value: 3.42

Next up:
Query block: Suppose we examine the molecule CC(C)c1ccc(COc2ccc(N(CCN)C(=O)c3cccnc3C(F)(F)F)cc2)cc1.Cl ; what AUC(0-t) at 8 h value has been reported?
Result block: 5.58
